// provenance: patent US7812037B2

Test system: platelets (platelet rich plasma)
Assay: Inhibition of platelet aggregation, ADP as agonist
Type: cell-based
Details: compound 30 μM, ADP 4 μM, human PRP, read-out: % Reduction in Aggregation ADP (4 μM)
Items are presented alongside their recorded inhibition at 30 µM.
test-readout: inhibition at 30 µM (%)

compound	test-readout	display-unit	measurement
Cc1ncc(CNc2ccc(C(=N)N)cc2)c(CNCCCCCC(=O)O)c1OCc1ccc(C(=N)N)cc1 [Compound 54]	inhibition at 30 µM	%	23
Cc1ncc(CNc2ccc(-c3ccc(C(=N)N)cc3)cc2)c(CO)c1OCc1ccc(C(=N)N)cc1 [Compound 6]	inhibition at 30 µM	%	89
Cc1ncc(CNc2ccc(-c3ccc(C(=N)N)cc3)cc2F)c(CO)c1OCc1ccc(C(=N)N)cc1 [Compound 63]	inhibition at 30 µM	%	95
Cc1ncc(CNc2ccc(-c3ccc(C(=N)N)cc3)cc2)c(C)c1OCc1cccc(C(=N)N)c1 [Compound 29]	inhibition at 30 µM	%	52
Cc1ncc(CNc2ccc(-c3ccc(C(=N)N)cc3)cn2)c(CO)c1OCc1ccc(C(=N)N)cc1 [Compound 60]	inhibition at 30 µM	%	87
Cc1ncc(CNc2ccc(-c3ccc(C(=N)N)cc3)cc2)c(C)c1OCc1ccc(C(=N)N)cc1 [Compound 25]	inhibition at 30 µM	%	93

----------
Test system: platelets (platelet rich plasma)
Experiment: Inhibition of platelet aggregation, collagen as agonist
Type: cell-based
Conditions: compound 30 μM, collagen 5 μg/mL, human PRP, read-out: % Reduction in Aggregation Collagen (5 μg/mL)
Reported inhibition at 30 µM values for a set of compounds
test-readout: inhibition at 30 µM (%)

query-smiles	target-system	measurement
Cc1ncc(CNc2ccc(-c3ccc(C(=N)N)cc3)cc2)c(CO)c1OCc1ccc(C(=N)N)cc1	platelets (platelet rich plasma)	44
Cc1ncc(CNc2ccc(C(=N)N)cc2)c(CNCCCCCC(=O)O)c1OCc1ccc(C(=N)N)cc1	platelets (platelet rich plasma)	13
Cc1ncc(CNc2ccc(-c3ccc(C(=N)N)cc3)cn2)c(CO)c1OCc1ccc(C(=N)N)cc1	platelets (platelet rich plasma)	26
Cc1ncc(CNc2ccc(-c3ccc(C(=N)N)cc3)cc2)c(C)c1OCc1ccc(C(=N)N)cc1	platelets (platelet rich plasma)	52
Cc1ncc(CNc2ccc(-c3ccc(C(=N)N)cc3)cc2)c(C)c1OCc1cccc(C(=N)N)c1	platelets (platelet rich plasma)	15
Cc1ncc(CNc2ccc(-c3ccc(C(=N)N)cc3)cc2F)c(CO)c1OCc1ccc(C(=N)N)cc1	platelets (platelet rich plasma)	41

----------
Target: Human FXa (Homo sapiens, UniProt P00742)
Construct: Determination of Anti-Factor Xa (Fxa) Activity; purchased Calbiochem
Sequence (P00742 235-488 limits assumed): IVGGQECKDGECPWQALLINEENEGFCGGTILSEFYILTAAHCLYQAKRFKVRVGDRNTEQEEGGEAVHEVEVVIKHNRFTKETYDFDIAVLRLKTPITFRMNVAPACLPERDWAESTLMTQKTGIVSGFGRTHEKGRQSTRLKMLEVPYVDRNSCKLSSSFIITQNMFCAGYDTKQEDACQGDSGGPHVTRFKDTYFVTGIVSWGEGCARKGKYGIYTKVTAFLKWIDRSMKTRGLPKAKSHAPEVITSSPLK
Sequence (P00742 41-179 partner limits assumed): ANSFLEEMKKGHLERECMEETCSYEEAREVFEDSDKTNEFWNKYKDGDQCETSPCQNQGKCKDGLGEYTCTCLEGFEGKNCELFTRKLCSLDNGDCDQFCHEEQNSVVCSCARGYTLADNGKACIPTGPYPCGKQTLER
Test: Determination of Anti-Factor Xa (Fxa) Activity
Type: biochemical
Conditions: competitive inhibition; substrate Pefachrome Xa; pH 7.5
pKi: −log10 of the molar value.
Mark 1 for reported pKi of 6 or greater; mark 0 for anything smaller.

query-smiles	classification
Cc1ncc(COc2ccc(C(=N)N)cc2)c(C)c1OCc1cccc(C(=N)N)c1	0
Cc1nc(C2CC2)c(CNc2ccc(C(=N)N)cc2)c(CO)c1OCc1cccc(C(=N)N)c1	1
Cc1c(CNc2ccc(C(=N)N)cc2)cnc(C=O)c1OCc1cccc(C(=N)N)c1	1
Cc1ncc(CNc2ccc(C(=N)N)cc2)c(C)c1OCc1cccc(C(=N)N)c1	1
N=C(N)c1ccc(NCc2cnc(CF)c(OCc3cccc(C(=N)N)c3)c2CF)cc1	1
Cc1c(CNc2ccc(C(=N)N)cc2)cnc(CO)c1OCc1cccc(C(=N)N)c1	1
